- assayed.target: 5-hydroxytryptamine receptor 1A (Homo sapiens, UniProt P08908)
- Sequence (P08908 whole entry): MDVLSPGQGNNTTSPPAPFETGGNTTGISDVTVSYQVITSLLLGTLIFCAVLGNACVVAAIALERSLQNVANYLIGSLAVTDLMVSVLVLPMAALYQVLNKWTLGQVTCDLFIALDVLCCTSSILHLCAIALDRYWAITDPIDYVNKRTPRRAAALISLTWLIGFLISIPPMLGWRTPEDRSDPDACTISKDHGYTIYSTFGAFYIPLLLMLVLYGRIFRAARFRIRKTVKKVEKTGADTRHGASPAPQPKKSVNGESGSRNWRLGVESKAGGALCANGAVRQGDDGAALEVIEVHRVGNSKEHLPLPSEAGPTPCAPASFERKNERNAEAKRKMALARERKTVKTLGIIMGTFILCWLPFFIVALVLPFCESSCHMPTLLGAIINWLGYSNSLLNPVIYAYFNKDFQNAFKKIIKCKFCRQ
pKi: −log10 of the molar value.
Classify as follows. Reported pKi greater than or equal to 6: true. Reported pKi below: false.

These solved cases illustrate the format of a correct answer.
Prompt: Check the entry COc1cc(Br)c2occ3c2c1[C@H](CN)CC3 : does pKi equal or exceed 6?
Completion: true

Prompt: Check the entry COc1cc(Br)c2c3c1[C@H](CN)CC[C@H]3CO2 : does pKi equal or exceed 6?
Completion: true

Prompt: Check the entry COc1cc(Br)c2c3c1[C@H](CN)CC[C@@H]3CO2 : does pKi equal or exceed 6?
Completion: true

Further cases:
Prompt: Check the entry COc1ccc2c3c1[C@H](CN)CC[C@@H]3CO2 : does pKi equal or exceed 6?
Completion: false

====

- assayed.target: 5-hydroxytryptamine receptor 2C (Rattus norvegicus, UniProt P08909)
- Sequence (P08909 whole entry): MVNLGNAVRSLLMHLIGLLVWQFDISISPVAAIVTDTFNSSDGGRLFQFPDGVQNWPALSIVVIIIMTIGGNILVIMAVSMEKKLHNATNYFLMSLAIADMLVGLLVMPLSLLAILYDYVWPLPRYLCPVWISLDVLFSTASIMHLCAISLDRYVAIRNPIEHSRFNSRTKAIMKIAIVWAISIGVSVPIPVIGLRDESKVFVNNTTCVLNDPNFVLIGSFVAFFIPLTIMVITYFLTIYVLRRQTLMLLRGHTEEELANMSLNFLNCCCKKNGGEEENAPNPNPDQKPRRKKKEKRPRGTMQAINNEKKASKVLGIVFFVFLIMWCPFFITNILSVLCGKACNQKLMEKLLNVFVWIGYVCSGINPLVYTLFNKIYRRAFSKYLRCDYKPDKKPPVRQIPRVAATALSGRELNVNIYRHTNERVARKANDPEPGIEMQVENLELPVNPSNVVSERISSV
pKi by entry:
// pKi: -log10(molar conc.)

Use these answered entries as a reference point.
Prompt: Respond only with pKi recorded for COc1cc(Br)c2c3c1[C@H](CN)CC[C@@H]3CO2
Completion: 8.55

Prompt: Respond only with pKi recorded for COc1ccc2c3c1[C@H](CN)CC[C@@H]3CO2
Completion: 7.23

Further cases:
Prompt: Respond only with pKi recorded for COc1cc(Br)c2occ3c2c1[C@H](CN)CC3
Completion: 8.96

Prompt: Respond only with pKi recorded for COc1cc(Br)c2c3c1[C@H](CN)CC[C@H]3CO2
Completion: 8.31

Prompt: Respond only with pKi recorded for COc1cc(Br)c2c3c1C[C@H](N)C[C@@H]3CO2 (relative stereo)
Completion: 8.40

Prompt: Respond only with pKi recorded for COc1ccc2occ3c2c1[C@H](CN)CC3
Completion: 7.96

Prompt: Respond only with pKi recorded for COc1ccc2c3c1[C@H](CN)CC[C@H]3CO2
Completion: 7.47

====

Ki by entry:
- assayed.target: UniProt P08908
- Sequence (P08908 whole entry): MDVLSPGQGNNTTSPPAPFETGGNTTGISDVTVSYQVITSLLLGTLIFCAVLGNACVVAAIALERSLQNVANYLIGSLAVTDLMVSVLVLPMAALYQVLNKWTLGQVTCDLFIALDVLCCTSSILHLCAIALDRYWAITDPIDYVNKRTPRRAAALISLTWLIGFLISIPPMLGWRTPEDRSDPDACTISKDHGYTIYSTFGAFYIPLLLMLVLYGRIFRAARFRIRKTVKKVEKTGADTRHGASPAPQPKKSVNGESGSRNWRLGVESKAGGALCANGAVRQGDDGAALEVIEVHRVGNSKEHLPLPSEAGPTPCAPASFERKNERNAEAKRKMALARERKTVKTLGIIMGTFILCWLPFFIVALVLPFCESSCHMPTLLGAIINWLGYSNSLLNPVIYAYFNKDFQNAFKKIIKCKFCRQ
Respond with the bare value in nM.

Prompt: Respond only with Ki recorded for COc1ccc2c3c1[C@H](CN)CC[C@H]3CO2
Completion: 1000

Further cases:
Prompt: Respond only with Ki recorded for COc1ccc2occ3c2c1[C@H](CN)CC3
Completion: 860

Prompt: Respond only with Ki recorded for COc1cc(Br)c2c3c1C[C@H](N)C[C@@H]3CO2 (relative stereo)
Completion: 960

src = ChEMBL document CHEMBL1136798
